# Test system: K-562 leukemia
# run.description: NCI-60 one-dose screen, 48 h
# particulars: 10 µM
About 83,000 compounds went through this panel and 20% of them were active in at least one assay; those are over-represented in the sample as a whole. The source made the active and inactive calls. The calls were made as follows: active = growth percent below 10; inactive = the rest.
Respond only with the outcome that fits, drawn from active, inactive

{"compound": "COc1ccc(C2=Cn3c(CCC(=O)c4nc5ccccc5[nH]4)nnc3SC2)cc1", "label.value": "active"}
{"compound": "Cc1cn(-c2cccc(NC(=O)c3ccc(C)c(Nc4nccc(-c5cccnc5)n4)c3)c2)cn1", "label.value": "active"}
{"compound": "COc1ccc(-c2cc(-c3ccc(OC)c(OC)c3)nc(SCCCC(=O)NO)n2)cc1", "label.value": "active"}

Now for a further compound.
Hi team, can someone confirm the assay call for COc1ccc(/C=C2/SC(=S)NC2=O)c(OC)c1OC ?
inactive

* * *

# System: SR leukemia
# run.description: NCI-60 one-dose screen, 48 h (100 = growth as untreated, 0 = no growth, -100 = all killed)
# particulars: 10 µM
This is part of a sample that, as a whole, favours compounds with a hit. Of some 83,000 tested, about 20% had one in any assay.
Catalogue of growth readings, one per entry.
Only the number, expressed in %, is required.

Previously resolved entries follow.
{"compound": "Nc1cc(Br)c(-c2nn3c(CCC(=O)c4nc5ccccc5[nH]4)nnc3s2)c(Br)c1", "units.text": "%", "growth": 88.1}
{"compound": "CCCN(CCC)C(=O)[C@H](CC)[C@@H]1CC[C@@H](C)[C@@H]([C@H](C)[C@@H](O)[C@@H](C)C(=O)[C@H](CC)C2O[C@]3(C=C[C@@H](O)[C@]4(CC[C@@](C)([C@H]5CC[C@](O)(CC)[C@H](C)O5)O4)O3)[C@H](C)C[C@@H]2C)O1 (stereo partly drawn)", "units.text": "%", "growth": 15.2}
{"compound": "COc1cccc(C2C(C#N)=C(N)Oc3cc(N)ccc32)c1 (stereo not drawn)", "units.text": "%", "growth": 14.4}
{"compound": "CCCCC1(O)CCCCC1", "units.text": "%", "growth": 92.6}
{"compound": "COc1ccc(-c2cc(-c3cc(OC)ccc3OC)nc(N)c2C#N)cc1", "units.text": "%", "growth": 43.9}
{"compound": "S=C(SSC(=S)N(c1ccccc1)c1ccccc1)N(c1ccccc1)c1ccccc1", "units.text": "%", "growth": 92.6}
{"compound": "C=CCn1c(SCC(=O)Nc2ccc(C(=O)/C=C/c3cc(OC)c(OC)c(OC)c3)cc2)nnc1-c1cc(-c2ccc(Cl)cc2)nc2ccccc12", "units.text": "%", "growth": 62}

Okay, next one:
Record CC(=O)Nc1ccc(S(=O)(=O)N/N=C(\C)c2ccc(C)cc2C)cc1 . Reported growth: 113

* * *

# System: 786-0 renal
# run.description: NCI-60 one-dose screen, 48 h (100 = growth as untreated, 0 = no growth, -100 = all killed)
# particulars: 10 µM
This is part of a sample that, as a whole, favours compounds with a hit. Of some 83,000 tested, about 20% had one in any assay. The source made the active and inactive calls. The calls were made as follows: active = growth percent below 10; inactive = the rest.
quantity.name: growth

{"molecule": "NS(=O)(=O)Oc1ccc(NC(=O)C2CCCCCC2)cc1", "target": "786-0 renal", "growth": "107% (inactive)"}
{"molecule": "O=C1c2ccccc2C(=O)c2c1ccc(C(Br)Br)c2[N+](=O)[O-]", "target": "786-0 renal", "growth": "21.1% (inactive)"}
{"molecule": "Nc1cc(-c2ccc(Cl)cc2)nn1-c1nc2ccccc2nc1Cc1ccccc1", "target": "786-0 renal", "growth": "89.5% (inactive)"}
{"molecule": "O=C1C=C(Nc2cccc(Br)c2)c2ccccc2C1=O", "target": "786-0 renal", "growth": "60.2% (inactive)"}
{"molecule": "COc1cc(OC)c2c(=O)c(O)c(-c3ccccc3)oc2c1", "target": "786-0 renal", "growth": "70.8% (inactive)"}
{"molecule": "Nc1cc(-c2ccncc2)c[nH]c1=O", "target": "786-0 renal", "growth": "103% (inactive)"}
{"molecule": "CCOc1ccccc1/C=N\\N=C\\c1ccccc1O", "target": "786-0 renal", "growth": "106% (inactive)"}
{"molecule": "COc1cccc2ccc(CC(O)(c3ccccc3)c3ccccc3)nc12", "target": "786-0 renal", "growth": "96.7% (inactive)"}

Okay, next one:
Record CCc1ccc(-c2ccc(-n3nc(C)c4c(N)nc(Cc5ccccc5)nc43)cc2)cc1 . Reported growth: 46.6% (inactive)

* * *

# Tested on: A549/ATCC NSCLC
# run.description: NCI-60 one-dose screen, 48 h
# particulars: 10 µM
Compounds without any hit were thinned out: in the full panel of roughly 83,000, 20% have a hit. Activity calls are given as the source filed them. The calls were made as follows: active = growth percent below 10; inactive = the rest.
Respond only with the outcome that fits, drawn from active, inactive

Illustrative cases are given below, each with its answer.
{"compound": "Cc1cc(CSc2ccccc2C(=O)N2CC=C(c3ccccc3)CC2)on1", "target": "A549/ATCC NSCLC", "label.value": "inactive"}
{"compound": "CC(=O)OC1C=CC(OC(C)=O)O1 (stereo unspecified)", "target": "A549/ATCC NSCLC", "label.value": "inactive"}
{"compound": "C(=N\\Nc1ncnc2sc3c(c12)CCNC3)/c1cccc2ccccc12", "target": "A549/ATCC NSCLC", "label.value": "inactive"}
{"compound": "CC(C)(C)OC(=O)CC(S(=O)(=O)c1ccccc1)S(=O)(=O)c1ccccc1", "target": "A549/ATCC NSCLC", "label.value": "inactive"}
{"compound": "CCCCCOC(=O)Nc1nc(=O)n(C2O[C@H](C)[C@@H](O)[C@H]2O)cc1F (stereo partly specified)", "target": "A549/ATCC NSCLC", "label.value": "inactive"}

Hi team, can someone confirm the assay call for COc1ccc2nc3cc(Cl)ccc3c(N)c2c1 ?
active

Hi team, can someone confirm the assay call for COc1ccc(Cc2cnc(N)nc2N)cc1OC ?
inactive

Hi team, can someone confirm the assay call for CS(=O)(=O)c1nccc(-c2c(-c3cccc(OCCc4ccccc4)c3)nc3sccn23)n1 ?
inactive

* * *

# System: DU-145 prostate
# run.description: NCI-60 one-dose screen, 48 h
# particulars: 10 µM
The panel holds about 83,000 compounds, 20% with a hit somewhere; the sample as a whole holds those more often. Calls of active or inactive are those of the source. How the source made its calls: active means growth percent below 10; inactive means the rest.
Respond only with the outcome that fits, drawn from true (1) = active, false (0) = inactive

Illustrative cases are given below, each with its answer.
{"molecule": "COc1cccc2ccc(CC(O)(c3ccccc3)c3ccccc3)nc12", "target": "DU-145 prostate", "label.value": "false (0)"}
{"molecule": "Cc1c2c(nn1C(=O)c1nn(-c3ccc(Cl)cc3)cc1O)-c1ccccc1CC2", "target": "DU-145 prostate", "label.value": "false (0)"}

Hi team, can someone confirm the assay call for COc1cc2c(cc1NC(=O)C(Cl)Cl)-c1ccc(NC(=O)C(Cl)Cl)cc1C2 ?
true (1)

Hi team, can someone confirm the assay call for OC[C@H]1OC([S-])[C@H](O)[C@@H](O)[C@@H]1O.[Au+] (stereo partly specified) ?
false (0)

Hi team, can someone confirm the assay call for CCC(c1ccc(OC)cc1)C(CC)c1ccc(O)c(CN2CCN(C)CC2)c1 (stereo unspecified) ?
false (0)

Hi team, can someone confirm the assay call for Cc1noc(C)c1CSc1ccccc1C(=O)N1CCN(c2cccc(C(F)(F)F)c2)CC1 ?
false (0)

Hi team, can someone confirm the assay call for Cc1ccc(C2=NN(c3ccc(S(C)(=O)=O)cc3)C(=O)CC2)cc1 ?
true (1)

Hi team, can someone confirm the assay call for CCOC(=O)CN(c1sc(C)c(C)c1C(=O)OCC)S(=O)(=O)c1ccc(C)cc1 ?
false (0)

* * *

# Tested on: UACC-62 melanoma
# run.description: NCI-60 one-dose screen, 48 h
# particulars: 10 µM
This is part of a sample that, as a whole, favours compounds with a hit. Of some 83,000 tested, about 20% had one in any assay. Activity calls are given as the source filed them. Rule for the calls: active = growth percent below 10; inactive = the rest.
Respond only with the outcome that fits, drawn from active, inactive

Illustrative cases are given below, each with its answer.
{"compound": "CCN(CC)CCCC(C)N=C(C1=C(C(=NC(C)CCCN(CC)CC)c2cccc(OC)c2)C(=O)NC1=O)c1cccc(OC)c1 (centres undefined)", "label.value": "active"}
{"compound": "O=C(Nc1ccc2c(O)cc(S(=O)(=O)O)cc2c1)c1ccc([N+](=O)[O-])cc1", "label.value": "inactive"}
{"compound": "O=C1c2c(c3c4ccccc4n(CCCCCCN4CCOCC4)c3c3[nH]c4ccccc4c23)C(=O)N1O", "label.value": "inactive"}

Now for a further compound.
Hi team, can someone confirm the assay call for COc1ccc(C(=O)CSc2nc(-c3cc(OC)ccc3OC)cc(-c3ccc(OC)cc3)c2C#N)cc1 ?
inactive
